system: Fibroblast; experiment: Multiplex assay against human fibroblast; format: toxicity, cell-based; conditions: 12 h, 10 µM, compound concentration 10 uM, replicate 1
Entries and their Population Mitotic Cells (%)
Answer in %, number only, no unit symbol.

Some compounds with known Population Mitotic Cells (%) results, for comparison:
Problem: # return recorded Population Mitotic Cells (%) for entry N[C@](CC1c2ccccc2Oc2ccccc21)(C(=O)O)[C@H]1C[C@@H]1C(=O)O
Solution: 50

Problem: Report measured Population Mitotic Cells (%); entry is C=CCN1C[C@H](C(=O)N(CCCN(C)C)C(=O)NCC)C[C@@H]2c3cccc4[nH]cc(c34)C[C@H]21 [CABERGOLINE]
Solution: 50

Continuing:
Problem: Give a short answer stating reported Population Mitotic Cells (%) for Cn1cc(C(=O)OCC2CCN(CCNS(C)(=O)=O)CC2)c2ccccc21 .
Solution: 51

###

system: U2OS; assay: Multiplex assay against U2OS; format: toxicity, cell-based; conditions: human, 48 h, 1 µM, compound concentration 1 uM, replicate 1
Criterion: Population Hoechst High Intensity Objects (%) strictly under 2%. Met: true (1). Not met: false (0).

Problem: In plain terms, does CSc1nc(NC2CCCC2)c([N+](=O)[O-])c(NC2CCCC2)n1 come in under 2% for Population Hoechst High Intensity Objects (%)?
Solution: true (1)

Problem: Bench note: check whether O=C(O)CCC/C=C\CC1C(O)CC(O)C1/C=C/C(O)COc1cccc(Cl)c1 (stereo not given) shows Population Hoechst High Intensity Objects (%) below 2%
Solution: true (1)

Problem: Here's an entry: COc1ccc2[nH]c(I)c(CCNC(C)=O)c2c1 . Is its Population Hoechst High Intensity Objects (%) below 2%?
Solution: true (1)

Problem: Please indicate whether the reported Population Hoechst High Intensity Objects (%) of CC(C)(O)C(=O)N1CCN(c2ccc(C(F)(F)F)c(C3=C(c4c[nH]c5ccccc45)C(=O)NC3=O)c2)CC1 is strictly below 2%.
Solution: false (0)

Problem: Item O=c1ccc2ccc(OCCCCN3CCN(c4cccc5sccc45)CC3)cc2[nH]1 : Population Hoechst High Intensity Objects (%) beneath 2%, strictly?
Solution: false (0)

Next:
Problem: Hello, is Population Hoechst High Intensity Objects (%) of the following molecule strictly smaller than 2%? COCCn1c(C)c(C)s/c1=N\C(=O)C1C(C)(C)C1(C)C
Solution: true (1)

Problem: Say whether its Population Hoechst High Intensity Objects (%) is strictly beneath 2%. Entry: Cc1cc(-c2ccc3c(c2)CC[C@H]3N2CC3(CCN(C(=O)Cc4cn5cc(C)sc5n4)CC3)C2)ncn1
Solution: true (1)

Problem: Dear reviewer, please state whether CC(C)(C)c1ccc(CSc2cnn(C(C)(C)C)c(=O)c2Cl)cc1 has Population Hoechst High Intensity Objects (%) strictly beneath 2%.
Solution: false (0)

###

Here the recorded Total Cell Count is given for each entry.
test system: Fibroblast; assay: Multiplex assay against human fibroblast; type: toxicity, cell-based; conditions: 24 h, 10 µM, compound concentration 10 uM, replicate 2
Please give only the number in your answer, with no unit.

Worked cases, answers included:
Problem: Respond only with Total Cell Count recorded for C[C@@H]1CC(=O)Nc2cccc(-c3ccc4c(c3)c(-c3cnn(C)c3)nn4C)c2N1
Solution: 119

Problem: Specify reported Total Cell Count for the molecule shown: O=C(NCCNCC(O)COc1ccc(O)cc1)N1CCOCC1.O=C(NCCNCC(O)COc1ccc(O)cc1)N1CCOCC1.O=C(O)/C=C/C(=O)O (centres undefined) [XAMOTEROL FUMARATE]
Solution: 172

Problem: Assign Total Cell Count to the following record: COc1c(Nc2ccc(S(C)(=O)=O)nc2C)ncnc1OC1CCN(C(=O)OC(C)C)CC1
Solution: 99

Consider the record given below.
Problem: Return the recorded Total Cell Count value; entry: S=C(NCCCc1c[nH]cn1)NCCCN(Cc1ccc(Cl)c(Cl)c1)c1ccc(Br)cn1
Solution: 248

From: ChEMBL document CHEMBL5058577
